- TARGET_OF_ASSAY: Fibronectin Receptor (Homo sapiens, UniProt P05556+P08648)
- Sequence (P08648 42-894 limits assumed): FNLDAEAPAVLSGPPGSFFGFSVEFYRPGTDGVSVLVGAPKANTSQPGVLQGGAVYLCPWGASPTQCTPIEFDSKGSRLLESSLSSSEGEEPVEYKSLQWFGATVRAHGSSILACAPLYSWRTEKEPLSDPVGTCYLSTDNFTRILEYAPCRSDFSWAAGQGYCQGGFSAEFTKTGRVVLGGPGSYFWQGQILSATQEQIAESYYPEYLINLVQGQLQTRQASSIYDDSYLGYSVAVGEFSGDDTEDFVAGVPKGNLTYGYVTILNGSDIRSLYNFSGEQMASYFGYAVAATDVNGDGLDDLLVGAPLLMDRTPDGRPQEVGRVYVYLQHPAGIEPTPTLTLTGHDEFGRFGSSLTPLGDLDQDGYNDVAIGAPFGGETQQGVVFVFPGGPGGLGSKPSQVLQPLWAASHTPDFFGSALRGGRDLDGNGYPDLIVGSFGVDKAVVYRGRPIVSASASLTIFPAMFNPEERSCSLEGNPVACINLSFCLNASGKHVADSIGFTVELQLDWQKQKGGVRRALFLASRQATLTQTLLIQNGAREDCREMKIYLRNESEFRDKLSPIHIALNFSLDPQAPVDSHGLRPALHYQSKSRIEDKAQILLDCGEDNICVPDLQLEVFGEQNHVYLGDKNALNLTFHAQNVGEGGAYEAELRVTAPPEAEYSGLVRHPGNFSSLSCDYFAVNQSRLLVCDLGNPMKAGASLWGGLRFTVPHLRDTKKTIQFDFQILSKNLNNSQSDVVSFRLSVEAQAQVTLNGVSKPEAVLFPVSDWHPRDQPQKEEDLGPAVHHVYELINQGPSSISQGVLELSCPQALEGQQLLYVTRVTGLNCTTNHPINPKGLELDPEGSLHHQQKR
- Sequence (P08648 895-1049 partner limits assumed): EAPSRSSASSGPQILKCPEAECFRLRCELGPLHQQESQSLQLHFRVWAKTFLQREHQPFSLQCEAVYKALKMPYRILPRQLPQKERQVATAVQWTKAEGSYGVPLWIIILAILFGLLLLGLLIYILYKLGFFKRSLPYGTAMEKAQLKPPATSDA
- Sequence (P05556 21-798): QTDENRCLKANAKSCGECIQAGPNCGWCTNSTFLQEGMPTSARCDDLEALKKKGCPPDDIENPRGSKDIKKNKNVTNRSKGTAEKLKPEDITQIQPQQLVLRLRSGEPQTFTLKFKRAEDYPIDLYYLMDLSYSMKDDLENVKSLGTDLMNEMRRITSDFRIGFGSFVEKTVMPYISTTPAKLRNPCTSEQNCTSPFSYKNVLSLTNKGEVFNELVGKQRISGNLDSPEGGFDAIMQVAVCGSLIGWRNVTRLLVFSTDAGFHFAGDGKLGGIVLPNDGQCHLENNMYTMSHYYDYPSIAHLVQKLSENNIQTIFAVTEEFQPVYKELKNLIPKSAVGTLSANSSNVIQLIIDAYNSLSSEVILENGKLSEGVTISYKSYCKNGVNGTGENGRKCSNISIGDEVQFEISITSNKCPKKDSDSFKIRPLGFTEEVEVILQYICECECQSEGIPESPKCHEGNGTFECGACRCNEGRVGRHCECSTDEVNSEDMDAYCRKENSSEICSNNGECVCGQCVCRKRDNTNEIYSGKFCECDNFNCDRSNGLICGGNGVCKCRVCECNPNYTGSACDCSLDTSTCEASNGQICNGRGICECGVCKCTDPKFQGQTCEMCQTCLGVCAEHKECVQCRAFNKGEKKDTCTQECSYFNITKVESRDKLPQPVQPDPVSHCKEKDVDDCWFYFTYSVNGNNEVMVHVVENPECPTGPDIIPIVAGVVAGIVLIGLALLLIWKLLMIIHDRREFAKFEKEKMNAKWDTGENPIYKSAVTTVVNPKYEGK
- ASSAY_PROTOCOL: Human Fibronectin-Fibronectin Receptor ELISA Assay
- MEASUREMENT_CONDITIONS: human placenta fibronectin receptor, fibronectin-coated plates; read-out: ELISA IC50 Fibronectin FnR
Where a SMILES comes first, the peptide text is derived from it. Bridges are numbered along the chain shown (N, C = ends). [ ]: non-standard residue; d: D form. The star is where a group is joined. NH(CH2)3NH2 = NCCCN*
PROPERTY_MEASURED: pIC50
Answers are plain numbers, as −log10 of the molar value.

// for each compound in input: emit pIC50
1. N=C(N)NCCC[C@@H]1NC(=O)[C@@H](Cc2ccc(O)cc2)NC(=O)CSC[C@@H](C(=O)NCCCN)NC(=O)[C@H](CC(=O)O)NC(=O)CNC1=O [8/22] ({CH2CO}-[dY]RGDC-{NH(CH2)3NH2}; thioether N-5)
2. N=C(N)NCCC[C@@H]1NC(=O)[C@@H](Cc2ccc(O)cc2)NC(=O)CSC[C@@H](C(=O)N[C@H](CCCNC(=N)N)C(N)=O)NC(=O)[C@H](CC(=O)O)NC(=O)CNC1=O [7/2] ({CH2CO}-[dY]RGDC[dR]-NH2; thioether N-5)
3. N=C(N)NCCC[C@@H]1NC(=O)[C@@H](Cc2ccc(O)cc2)NC(=O)C(CCCCN)SC[C@@H](C(=O)O)NC(=O)[C@H](CC(=O)O)NC(=O)CNC1=O (single isomer, unassigned) [9/11]

output:
1: 6.75; 2: 7.38; 3: 6.80
